Test: PK in rats
Assay type: in vivo
Conditions: male, Wistar Hannover, plasma; rat, oral 2 mg/kg
READOUT TYPE: bioavailability (%)

[[record]]
smiles_string = "C#C[C@]1(CO)O[C@@H](n2ccc3c(N)nc(Cl)nc32)C[C@@H]1O"
readout_type = "bioavailability"
unit_of_measure = "%"
recorded_number = 57


---

Assay: PK in rhesus monkeys (plasma)
Assay type: in vivo
Details: rhesus monkey, plasma, po, 50 mg/kg, monkeys, oral 50 mg/kg, 0.25 hr; read-out: Arithmetic Mean Concentration in plasma
READOUT TYPE: concentration at 0.25 h (µM)

[[record]]
molecule = "C#C[C@]1(CO)O[C@@H](n2ccc3c(N)nc(Cl)nc32)C[C@@H]1O [Compound 12]"
readout_type = "concentration at 0.25 h"
unit_of_measure = "µM"
recorded_number = 4.94


---

Assay: PK in rhesus monkeys (plasma)
Assay type: in vivo
Conditions: rhesus monkey, plasma; monkey, IV 0.5 mg/kg; read-out: CLp
READOUT TYPE: clearance

[[record]]
smiles_string = "C#C[C@]1(CO)O[C@@H](n2ccc3c(N)nc(Cl)nc32)C[C@@H]1O"
result = "12.6 mL/min/kg"


---

Assay: PK in rhesus monkeys (plasma)
Format: in vivo
Settings: rhesus, rhesus monkey, plasma, po, 50 mg/kg, monkeys, oral 50 mg/kg, 6 hr; read-out: Concentration in plasma, individual subjects
READOUT TYPE: concentration at 6 h (µM)

[[record]]
smiles_string = "C#C[C@]1(CO)O[C@@H](n2ccc3c(N)nc(Cl)nc32)C[C@@H]1O"
unit_of_measure = "µM"
recorded_number = 10.1


---

IC50 by entry:
Molecular target: panel of 114 enzyme and receptor binding assays
Test: Off-target panel of 114 enzyme and receptor-binding assays
Details: tested at 10 µM, 114 assays; read-out: IC50 in all off-target assays
READOUT TYPE: IC50

[[record]]
smiles_string = "C#C[C@]1(CO)O[C@@H](n2ccc3c(N)nc(Cl)nc32)C[C@@H]1O"
subject_of_test = "panel of 114 enzyme and receptor binding assays"
result = "> 10 µM"

[[record]]
smiles_string = "C#C[C@]1(COP(=O)(O)OP(=O)(O)OP(=O)(O)O)O[C@@H](n2ccc3c(N)nc(Cl)nc32)C[C@@H]1O"
subject_of_test = "panel of 114 enzyme and receptor binding assays"
result = "> 10 µM"


---

Assay: PK in rhesus monkeys (plasma)
Assay type: in vivo
Conditions: rhesus, rhesus monkey, plasma, po, 50 mg/kg, monkeys, oral 50 mg/kg, 4 hr; read-out: Concentration in plasma, individual subjects
READOUT TYPE: concentration at 4 h (µM)

[[record]]
smiles_string = "C#C[C@]1(CO)O[C@@H](n2ccc3c(N)nc(Cl)nc32)C[C@@H]1O"
unit_of_measure = "µM"
recorded_number = 16.9


---

System: HIV-1
Assay: Single-cycle antiviral assay in PBMCs
Format: cell-based
Conditions: read-out: PBMC IC50; HIV-1, single-cycle assay, human PBMCs, 10% NHS; listed as MK-8527
pIC50: −log10 of the molar value.
READOUT TYPE: pIC50

[[record]]
compound = "C#C[C@]1(CO)O[C@@H](n2ccc3c(N)nc(Cl)nc32)C[C@@H]1O [Compound 12]"
recorded_number = 9.68


---

Biological target: HIV-1 RT (Human immunodeficiency virus type 1 group M subtype B, UniProt P04585)
Construct: Full-length WT RT protein was expressed in Escherichia coli BL21(DE3) cells
Experiment: HIV-1 RT biochemical (ECL) assay
Details: purified recombinant RT, n = 8; read-out: IC50, RNA-dependent DNA polymerization
READOUT TYPE: IC50 (nM)

[[record]]
smiles_string = "C#C[C@]1(COP(=O)(O)OP(=O)(O)OP(=O)(O)O)O[C@@H](n2ccc3c(N)nc(Cl)nc32)C[C@@H]1O"
recorded_number = 813

